Give MIC for every item shown.
# assay_notes: Tested in vitro for its antibacterial activity against Peptococcus variabilis UC6320
# Type: functional
State the answer as a number, implicitly in µg/mL.

[Q] Fill in the blank: the reported MIC of CCCC(=O)OC[C@@H](C)[C@H]1CN(C(=O)CCC)C1=O is ____.
[A] 256

[Q] Fill in the blank: the reported MIC of CCC[C@@H]1C[C@@H](C(=O)N[C@@H]([C@H]2O[C@H](SC)[C@H](O)[C@@H](O)[C@H]2O)[C@H](C)Cl)N(C)C1 is ____.
[A] 1

[Q] Fill in the blank: the reported MIC of CCCCCC(=O)OC[C@@H](C)[C@H]1CN(C(=O)CCCCC)C1=O is ____.
[A] 256

[Q] Fill in the blank: the reported MIC of CCCC(=O)N1C[C@H]([C@H](C)COC(C)=O)C1=O is ____.
[A] 64

[Q] Fill in the blank: the reported MIC of CCCC(=O)OC[C@H](C)[C@H]1CN(C(=O)CCC)C1=O is ____.
[A] 256

Reference source: ChEMBL document CHEMBL1150488
